test system: LXRa:RXRa (NR concentration 270 nM, RXRa partner concentration 90 nM); experiment: PBM binding z-score (relative to random genomic background probes); higher = stronger binding; sequences stand for … in GC…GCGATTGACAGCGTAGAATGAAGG
Reported values of PBM binding z-score for individual entries
MEASUREMENT NAME: PBM binding z-score

# RESIDUES, TEST SYSTEM, MEASUREMENT NAME, RESULT NUMBER
records = [
    ("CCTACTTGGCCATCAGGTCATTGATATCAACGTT", "LXRa:RXRa (NR concentration 270 nM, RXRa partner concentration 90 nM)", "PBM binding z-score", 1.81),
    ("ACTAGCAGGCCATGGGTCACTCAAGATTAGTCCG", "LXRa:RXRa (NR concentration 270 nM, RXRa partner concentration 90 nM)", "PBM binding z-score", 0.807),
    ("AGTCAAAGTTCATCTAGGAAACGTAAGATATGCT", "LXRa:RXRa (NR concentration 270 nM, RXRa partner concentration 90 nM)", "PBM binding z-score", 5.87),
    ("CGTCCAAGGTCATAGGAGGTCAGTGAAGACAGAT", "LXRa:RXRa (NR concentration 270 nM, RXRa partner concentration 90 nM)", "PBM binding z-score", 7.44),
    ("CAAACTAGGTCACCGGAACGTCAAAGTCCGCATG", "LXRa:RXRa (NR concentration 270 nM, RXRa partner concentration 90 nM)", "PBM binding z-score", 3.3),
    ("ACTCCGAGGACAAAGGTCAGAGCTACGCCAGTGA", "LXRa:RXRa (NR concentration 270 nM, RXRa partner concentration 90 nM)", "PBM binding z-score", 4.4),
    ("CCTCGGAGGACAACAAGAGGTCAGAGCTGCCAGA", "LXRa:RXRa (NR concentration 270 nM, RXRa partner concentration 90 nM)", "PBM binding z-score", 3.5),
    ("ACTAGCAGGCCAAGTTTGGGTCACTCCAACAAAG", "LXRa:RXRa (NR concentration 270 nM, RXRa partner concentration 90 nM)", "PBM binding z-score", 0.00504),
    ("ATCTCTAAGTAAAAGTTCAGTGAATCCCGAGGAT", "LXRa:RXRa (NR concentration 270 nM, RXRa partner concentration 90 nM)", "PBM binding z-score", 1.11),
    ("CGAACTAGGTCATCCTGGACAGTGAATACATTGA", "LXRa:RXRa (NR concentration 270 nM, RXRa partner concentration 90 nM)", "PBM binding z-score", 2.46),
    ("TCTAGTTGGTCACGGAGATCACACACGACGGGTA", "LXRa:RXRa (NR concentration 270 nM, RXRa partner concentration 90 nM)", "PBM binding z-score", 0.174),
    ("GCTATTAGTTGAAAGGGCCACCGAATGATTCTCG", "LXRa:RXRa (NR concentration 270 nM, RXRa partner concentration 90 nM)", "PBM binding z-score", 0.0381),
    ("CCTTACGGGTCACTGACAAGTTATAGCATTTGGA", "LXRa:RXRa (NR concentration 270 nM, RXRa partner concentration 90 nM)", "PBM binding z-score", 3.31),
    ("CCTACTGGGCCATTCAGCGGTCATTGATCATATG", "LXRa:RXRa (NR concentration 270 nM, RXRa partner concentration 90 nM)", "PBM binding z-score", 0.756),
    ("TCTTGTAGATCAATAGAGGTCAAGAAAGTGCGCT", "LXRa:RXRa (NR concentration 270 nM, RXRa partner concentration 90 nM)", "PBM binding z-score", 5.24),
    ("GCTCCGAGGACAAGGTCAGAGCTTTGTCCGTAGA", "LXRa:RXRa (NR concentration 270 nM, RXRa partner concentration 90 nM)", "PBM binding z-score", 1.33),
    ("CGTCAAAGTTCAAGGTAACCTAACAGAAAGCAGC", "LXRa:RXRa (NR concentration 270 nM, RXRa partner concentration 90 nM)", "PBM binding z-score", 5.68),
    ("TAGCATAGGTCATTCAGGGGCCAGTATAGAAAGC", "LXRa:RXRa (NR concentration 270 nM, RXRa partner concentration 90 nM)", "PBM binding z-score", 5.38),
    ("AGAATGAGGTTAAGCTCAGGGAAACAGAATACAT", "LXRa:RXRa (NR concentration 270 nM, RXRa partner concentration 90 nM)", "PBM binding z-score", 1.94),
    ("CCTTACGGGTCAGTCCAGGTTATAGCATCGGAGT", "LXRa:RXRa (NR concentration 270 nM, RXRa partner concentration 90 nM)", "PBM binding z-score", 3.88),
    ("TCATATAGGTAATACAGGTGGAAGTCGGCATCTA", "LXRa:RXRa (NR concentration 270 nM, RXRa partner concentration 90 nM)", "PBM binding z-score", 1.49),
    ("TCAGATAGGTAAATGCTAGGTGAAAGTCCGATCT", "LXRa:RXRa (NR concentration 270 nM, RXRa partner concentration 90 nM)", "PBM binding z-score", 0.46),
    ("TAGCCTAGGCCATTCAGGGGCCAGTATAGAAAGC", "LXRa:RXRa (NR concentration 270 nM, RXRa partner concentration 90 nM)", "PBM binding z-score", -0.796),
    ("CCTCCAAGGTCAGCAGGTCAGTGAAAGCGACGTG", "LXRa:RXRa (NR concentration 270 nM, RXRa partner concentration 90 nM)", "PBM binding z-score", 3.58),
    ("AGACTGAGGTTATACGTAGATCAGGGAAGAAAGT", "LXRa:RXRa (NR concentration 270 nM, RXRa partner concentration 90 nM)", "PBM binding z-score", 2),
    ("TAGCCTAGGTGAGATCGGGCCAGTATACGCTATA", "LXRa:RXRa (NR concentration 270 nM, RXRa partner concentration 90 nM)", "PBM binding z-score", -0.533),
    ("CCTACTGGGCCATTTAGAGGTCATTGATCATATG", "LXRa:RXRa (NR concentration 270 nM, RXRa partner concentration 90 nM)", "PBM binding z-score", 4.87),
    ("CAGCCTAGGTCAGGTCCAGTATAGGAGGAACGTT", "LXRa:RXRa (NR concentration 270 nM, RXRa partner concentration 90 nM)", "PBM binding z-score", 0.851),
    ("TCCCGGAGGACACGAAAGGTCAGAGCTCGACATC", "LXRa:RXRa (NR concentration 270 nM, RXRa partner concentration 90 nM)", "PBM binding z-score", 3.95),
    ("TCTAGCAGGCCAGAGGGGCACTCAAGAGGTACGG", "LXRa:RXRa (NR concentration 270 nM, RXRa partner concentration 90 nM)", "PBM binding z-score", -0.393),
    ("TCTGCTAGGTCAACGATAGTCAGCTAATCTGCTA", "LXRa:RXRa (NR concentration 270 nM, RXRa partner concentration 90 nM)", "PBM binding z-score", 2.35),
    ("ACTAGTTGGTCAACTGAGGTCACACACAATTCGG", "LXRa:RXRa (NR concentration 270 nM, RXRa partner concentration 90 nM)", "PBM binding z-score", 4.75),
    ("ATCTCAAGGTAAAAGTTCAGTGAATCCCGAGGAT", "LXRa:RXRa (NR concentration 270 nM, RXRa partner concentration 90 nM)", "PBM binding z-score", 1.66),
    ("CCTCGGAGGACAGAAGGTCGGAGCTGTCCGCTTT", "LXRa:RXRa (NR concentration 270 nM, RXRa partner concentration 90 nM)", "PBM binding z-score", -0.259),
    ("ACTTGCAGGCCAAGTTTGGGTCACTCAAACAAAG", "LXRa:RXRa (NR concentration 270 nM, RXRa partner concentration 90 nM)", "PBM binding z-score", 0.231),
    ("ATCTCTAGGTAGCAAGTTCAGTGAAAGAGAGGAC", "LXRa:RXRa (NR concentration 270 nM, RXRa partner concentration 90 nM)", "PBM binding z-score", 0.333),
    ("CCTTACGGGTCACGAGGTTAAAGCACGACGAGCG", "LXRa:RXRa (NR concentration 270 nM, RXRa partner concentration 90 nM)", "PBM binding z-score", 4.81),
    ("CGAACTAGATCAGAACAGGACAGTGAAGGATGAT", "LXRa:RXRa (NR concentration 270 nM, RXRa partner concentration 90 nM)", "PBM binding z-score", -0.369),
    ("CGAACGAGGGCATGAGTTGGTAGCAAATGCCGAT", "LXRa:RXRa (NR concentration 270 nM, RXRa partner concentration 90 nM)", "PBM binding z-score", 0.0461),
    ("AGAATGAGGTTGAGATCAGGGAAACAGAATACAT", "LXRa:RXRa (NR concentration 270 nM, RXRa partner concentration 90 nM)", "PBM binding z-score", 0.207),
    ("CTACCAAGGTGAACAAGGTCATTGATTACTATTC", "LXRa:RXRa (NR concentration 270 nM, RXRa partner concentration 90 nM)", "PBM binding z-score", 3.77),
    ("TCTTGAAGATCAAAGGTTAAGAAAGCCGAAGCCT", "LXRa:RXRa (NR concentration 270 nM, RXRa partner concentration 90 nM)", "PBM binding z-score", 2.29),
    ("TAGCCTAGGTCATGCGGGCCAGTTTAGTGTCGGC", "LXRa:RXRa (NR concentration 270 nM, RXRa partner concentration 90 nM)", "PBM binding z-score", 3.15),
    ("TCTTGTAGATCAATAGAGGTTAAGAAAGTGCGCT", "LXRa:RXRa (NR concentration 270 nM, RXRa partner concentration 90 nM)", "PBM binding z-score", 3.4),
    ("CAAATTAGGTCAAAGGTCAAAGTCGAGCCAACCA", "LXRa:RXRa (NR concentration 270 nM, RXRa partner concentration 90 nM)", "PBM binding z-score", 7.33),
    ("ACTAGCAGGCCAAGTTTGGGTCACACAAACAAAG", "LXRa:RXRa (NR concentration 270 nM, RXRa partner concentration 90 nM)", "PBM binding z-score", 0.408),
    ("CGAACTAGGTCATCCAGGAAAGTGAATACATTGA", "LXRa:RXRa (NR concentration 270 nM, RXRa partner concentration 90 nM)", "PBM binding z-score", 2.64),
    ("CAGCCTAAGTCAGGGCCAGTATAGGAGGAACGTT", "LXRa:RXRa (NR concentration 270 nM, RXRa partner concentration 90 nM)", "PBM binding z-score", -0.51),
    ("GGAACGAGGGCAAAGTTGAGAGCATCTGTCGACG", "LXRa:RXRa (NR concentration 270 nM, RXRa partner concentration 90 nM)", "PBM binding z-score", 1.11),
    ("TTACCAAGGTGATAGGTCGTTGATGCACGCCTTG", "LXRa:RXRa (NR concentration 270 nM, RXRa partner concentration 90 nM)", "PBM binding z-score", 0.702),
    ("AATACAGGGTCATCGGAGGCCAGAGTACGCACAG", "LXRa:RXRa (NR concentration 270 nM, RXRa partner concentration 90 nM)", "PBM binding z-score", 6.52),
]
